List of inhibition at 50 µg/mL values.
# Tested on: Phytophthora infestans (Mont) de Bary
# experiment: microbe, parasite or virus in culture
# Type: cell-based
# experimentalParameters: Phytophthora infestans, read-out: Fungicidal activity, inhibition, PI
// note: answer is a bare numeric in %

For orientation, consider the following solved cases.
>  <compound>
COC(=O)CCCNC(=O)/C(=C/c1ccccc1)NC(=O)c1ccccc1 [Compound 36]

>  <targetOrSystem>
Phytophthora infestans (Mont) de Bary

>  <testReadout>
inhibition at 50 µg/mL

>  <val>
2

$$$$
>  <compound>
O=C(NCc1ccc(C(F)(F)F)cc1)/C(=C/c1ccccc1)NC(=O)c1ccccc1 [Compound 57]

>  <targetOrSystem>
Phytophthora infestans (Mont) de Bary

>  <testReadout>
inhibition at 50 µg/mL

>  <val>
0

$$$$
>  <compound>
CC(C)(C)OC(=O)N1CCC(c2nc(/C=C(\NC(=O)c3ccccc3)C(=O)N3CCC(O)(c4ccc(Br)cc4)CC3)cs2)CC1 [Compound 29]

>  <targetOrSystem>
Phytophthora infestans (Mont) de Bary

>  <testReadout>
inhibition at 50 µg/mL

>  <val>
14

$$$$
>  <compound>
COc1ccc(C(=O)N/C(=C\c2ccccc2)C(=O)N2CCC(O)(c3ccc(Br)cc3)CC2)cc1 [Compound 5]

>  <targetOrSystem>
Phytophthora infestans (Mont) de Bary

>  <testReadout>
inhibition at 50 µg/mL

>  <val>
18

$$$$
>  <compound>
O=C(N/C(=C\c1ccco1)C(=O)N1CCC(O)(c2ccc(Br)cc2)CC1)C1CCCCC1 [Compound 63]

>  <targetOrSystem>
Phytophthora infestans (Mont) de Bary

>  <testReadout>
inhibition at 50 µg/mL

>  <val>
21

$$$$

Req: Note inhibition at 50 µg/mL for the compound shown: CC(C)(C)OC(=O)N1CCC(c2nc(C(=O)NCC(=O)O)cs2)CC1 [Compound 65]
Resp: 18

Req: Input Cc1snnc1/C=C(\NC(=O)c1ccccc1)C(=O)O [Compound 70] , output reported inhibition at 50 µg/mL.
Resp: 13

Req: Write down inhibition at 50 µg/mL measured for item CCOC(=O)c1csc(C2CCN(C(=O)/C(=C/c3ccccc3)NC(=O)c3ccccc3)CC2)n1 [Compound 30]
Resp: 9

Req: Return the recorded inhibition at 50 µg/mL value; entry: O=C(NCc1ccc(Br)cc1)/C(=C/c1ccccc1)NC(=O)C1CC1 [Compound 59]
Resp: 10

Req: Entry O=C(N/C(=C\c1ccccc1)C(=O)N1CCC(O)(c2ccc(Br)cc2)CC1)c1ccco1 [Compound 13] needs its inhibition at 50 µg/mL filled in; supply it.
Resp: 27
